# MEASUREMENT_TARGET: Vascular endothelial growth factor receptor 2 (Homo sapiens, UniProt P35968)
# Sequence (P35968 whole entry): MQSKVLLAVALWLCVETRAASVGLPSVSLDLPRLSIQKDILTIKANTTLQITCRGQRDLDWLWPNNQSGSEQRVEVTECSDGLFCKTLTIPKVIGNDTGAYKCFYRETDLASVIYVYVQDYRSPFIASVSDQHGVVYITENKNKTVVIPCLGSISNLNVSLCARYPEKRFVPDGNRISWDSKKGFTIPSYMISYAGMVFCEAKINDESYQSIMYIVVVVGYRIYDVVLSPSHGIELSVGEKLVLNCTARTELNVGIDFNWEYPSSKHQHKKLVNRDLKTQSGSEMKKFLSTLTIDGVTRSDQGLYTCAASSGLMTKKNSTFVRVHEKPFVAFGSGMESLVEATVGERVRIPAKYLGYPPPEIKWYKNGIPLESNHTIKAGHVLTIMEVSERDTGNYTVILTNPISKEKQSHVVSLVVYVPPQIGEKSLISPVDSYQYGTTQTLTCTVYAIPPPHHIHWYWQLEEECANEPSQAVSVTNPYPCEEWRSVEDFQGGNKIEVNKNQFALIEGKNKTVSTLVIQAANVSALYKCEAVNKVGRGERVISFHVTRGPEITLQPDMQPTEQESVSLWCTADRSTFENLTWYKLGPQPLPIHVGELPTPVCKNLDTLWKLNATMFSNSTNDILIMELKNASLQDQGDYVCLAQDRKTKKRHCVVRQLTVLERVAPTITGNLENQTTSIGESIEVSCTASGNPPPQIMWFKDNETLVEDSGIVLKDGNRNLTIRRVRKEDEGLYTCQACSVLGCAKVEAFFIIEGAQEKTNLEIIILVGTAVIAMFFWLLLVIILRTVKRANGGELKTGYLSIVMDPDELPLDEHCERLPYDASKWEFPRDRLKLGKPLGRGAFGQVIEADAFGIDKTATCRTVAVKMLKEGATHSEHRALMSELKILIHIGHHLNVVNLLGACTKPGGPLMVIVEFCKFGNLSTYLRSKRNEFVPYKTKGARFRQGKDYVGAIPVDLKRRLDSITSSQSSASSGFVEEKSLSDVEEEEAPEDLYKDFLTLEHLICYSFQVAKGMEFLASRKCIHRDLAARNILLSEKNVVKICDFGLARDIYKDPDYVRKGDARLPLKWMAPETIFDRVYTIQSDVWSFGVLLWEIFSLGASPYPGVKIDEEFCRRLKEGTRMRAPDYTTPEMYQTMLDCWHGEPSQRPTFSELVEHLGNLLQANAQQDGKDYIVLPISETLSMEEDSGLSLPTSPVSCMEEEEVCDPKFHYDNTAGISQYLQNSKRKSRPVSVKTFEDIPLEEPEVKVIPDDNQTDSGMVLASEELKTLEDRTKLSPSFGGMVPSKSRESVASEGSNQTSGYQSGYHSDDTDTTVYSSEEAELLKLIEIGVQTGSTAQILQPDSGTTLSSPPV
# ASSAY_EXPLANATION: Inhibition of VEGFR2 assessed as inhibition of phosphorylation in human 293 cells by cell-based ELISA
# Type: functional, HEK293
PARAMETER: IC50 (nM)
Just the number in nM, nothing appended.

O=C(Nc1ccc(Cl)c(C(F)(F)F)c1)c1ccnn1CCc1ccncc1 | 450
O=C(Nc1ccc(OC(F)(F)F)cc1)c1ccnn1CCc1ccncc1 | 18
O=C(Nc1ccc(C(F)(F)F)c(Cl)c1)c1nccn1CCc1ccncc1 | 4950
CC(C)c1ccc(NC(=O)c2ccnn2CCc2ccncc2)cc1 | 53
O=C(Nc1cccc(OC(F)(F)Cl)c1)c1ccnn1CCc1ccncc1 | 21

Consider now this further compound.
Q) Looking for the measured IC50 of O=C(Nc1ccc(OC(F)(F)F)cc1)c1nccn1CCc1ccncc1 , can you help?
A) 1050

Ref: ChEMBL document CHEMBL1148870
